# tested on: δ receptors in rat brain membranes (Rattus norvegicus)
# Construct: membranes from HEK-293S cells expressing the cloned human opioid receptors or from homogenised rat or mouse brain
# Sequence (P33533 whole entry): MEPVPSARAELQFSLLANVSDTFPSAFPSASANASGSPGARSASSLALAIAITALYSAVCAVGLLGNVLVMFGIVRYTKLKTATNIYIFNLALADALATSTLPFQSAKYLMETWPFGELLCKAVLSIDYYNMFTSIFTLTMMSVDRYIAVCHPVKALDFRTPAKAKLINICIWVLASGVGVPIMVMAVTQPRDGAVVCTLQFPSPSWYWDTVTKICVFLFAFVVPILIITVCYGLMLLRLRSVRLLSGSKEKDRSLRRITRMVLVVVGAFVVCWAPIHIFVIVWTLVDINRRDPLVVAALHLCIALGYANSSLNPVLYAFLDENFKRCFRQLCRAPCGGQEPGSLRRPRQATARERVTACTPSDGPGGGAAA
# assay info: Rat brain functional assay (GTPγ35S binding)
# Method: Rat brains are weighed and rinsed in ice-cold PBS (containing 2.5 mM EDTA, pH 7.4). […] The agonist activity of the compounds is measured by determining the degree to which the compounds receptor complex activates the binding of GTP to G-proteins to which the receptors are coupled. […] The EC50 and Emax values of compounds are determined from dose-response curves. […]
measurement name: EC50

EC50 reported for this compound `CCN(CC)C(=O)c1ccc(C(=C2CCN(Cc3ccccc3)CC2)c2cccc(NS(C)(=O)=O)c2)cc1` : 1.32 nM

###

# tested on: cloned human δ receptors (Homo sapiens, UniProt P41143)
# Sequence (P41143 whole entry): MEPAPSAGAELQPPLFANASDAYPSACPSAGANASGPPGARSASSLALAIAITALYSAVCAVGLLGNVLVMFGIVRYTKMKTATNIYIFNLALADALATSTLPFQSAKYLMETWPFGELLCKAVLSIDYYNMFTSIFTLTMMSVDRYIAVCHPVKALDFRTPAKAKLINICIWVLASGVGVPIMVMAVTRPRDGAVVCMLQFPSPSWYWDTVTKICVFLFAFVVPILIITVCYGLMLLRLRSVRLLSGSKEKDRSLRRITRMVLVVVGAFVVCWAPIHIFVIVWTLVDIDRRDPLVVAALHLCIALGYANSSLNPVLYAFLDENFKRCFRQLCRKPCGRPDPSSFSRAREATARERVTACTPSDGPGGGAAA
# assay info: Human δ receptor functional assay (GTP[γ]35S binding), high and low receptor expression
# Method: Human 293S cells expressing cloned human κ, δ and μ receptors and neomycin resistance are grown in suspension at 37° C. and 5% CO2 in shaker flasks containing calcium-free DMEM10% FBS, 5% BCS, 0.1% Pluronic F-68, and 600 μg/ml geneticin. […] The agonist activity of the compounds is measured by determining the degree to which the compounds receptor complex activates the binding of GTP to G-proteins to which the receptors are coupled. […]
measurement name: EC50

Examples from the recorded data:
CCN(CC)C(=O)c1ccc(C(=C2CCN(Cc3cccnc3)CC2)c2cccc(NS(C)(=O)=O)c2)cc1 | 5.25 to 19.3 nM
CCN(CC)C(=O)c1ccc(C(=C2CCN(Cc3cccs3)CC2)c2cccc(NS(C)(=O)=O)c2)cc1 | 5.25 to 19.3 nM
CCN(CC)C(=O)c1ccc(C(=C2CCN(Cc3nccs3)CC2)c2cccc(NS(C)(=O)=O)c2)cc1 | 5.25 to 19.3 nM
CCN(CC)C(=O)c1ccc(C(=C2CCN(Cc3ccccc3)CC2)c2cccc(NS(C)(=O)=O)c2)cc1 | 0.53 nM

Data point: `CCN(CC)C(=O)c1ccc(C(=C2CCN(Cc3ccco3)CC2)c2cccc(NS(C)(=O)=O)c2)cc1` ; EC50 = 5.25 to 19.3 nM
